Provide the recorded IC50 for the entries that follow.
assayed-system: glutaminase (GAC) (Homo sapiens)
Sequence (O94925 55-598 isoform O94925-3 limits assumed): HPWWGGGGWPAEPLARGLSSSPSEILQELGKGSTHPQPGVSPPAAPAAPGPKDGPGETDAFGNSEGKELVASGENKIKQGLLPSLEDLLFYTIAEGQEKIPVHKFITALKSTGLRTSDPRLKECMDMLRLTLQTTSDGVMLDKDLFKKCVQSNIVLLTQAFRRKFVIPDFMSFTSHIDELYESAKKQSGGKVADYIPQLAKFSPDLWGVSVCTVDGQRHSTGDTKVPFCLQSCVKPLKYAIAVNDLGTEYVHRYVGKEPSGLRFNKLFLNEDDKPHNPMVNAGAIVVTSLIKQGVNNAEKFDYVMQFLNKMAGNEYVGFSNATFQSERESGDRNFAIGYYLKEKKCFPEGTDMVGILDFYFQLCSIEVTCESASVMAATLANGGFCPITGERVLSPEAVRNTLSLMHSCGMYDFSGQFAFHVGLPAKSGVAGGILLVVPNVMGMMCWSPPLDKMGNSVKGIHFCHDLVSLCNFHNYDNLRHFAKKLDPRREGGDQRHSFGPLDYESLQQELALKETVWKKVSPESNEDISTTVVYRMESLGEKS

CC(=O)Nc1ccccc1CC(=O)Nc1nnc([C@H]2CCC[C@H](c3nnc(NC(=O)Cc4ccccc4NC(C)=O)s3)C2)s1	100 to 500 nM
N#Cc1cccc(CC(=O)Nc2nnc([C@H]3CCC[C@H](c4nnc(NC(=O)Cc5cccc(C6CCCNC6)c5)s4)C3)s2)c1 (stereo partly shown)	< 100 nM
O=C(Cc1ccccc1Cl)Nc1nnc([C@H]2CCC[C@H](c3nnc(NC(=O)Cc4ccccc4Cl)s3)C2)s1	100 to 500 nM
CC(=O)Nc1nnc([C@H]2CCC[C@H](c3nnc(NC(C)=O)s3)C2)s1	100 to 500 nM
O=C(Cc1cccc([N+](=O)[O-])c1)Nc1nnc([C@H]2CCC[C@H](c3nnc(NC(=O)Cc4cccc([N+](=O)[O-])c4)s3)C2)s1	< 100 nM

Field: IC50. Fill in for each record below.
1. O=C(Nc1nnc([C@H]2CCC[C@H](c3nnc(NC(=O)C(CO)c4ccccc4)s3)C2)s1)C(CO)c1ccccc1 (stereo partly shown)
2. O=C(Cc1ccc(N2CC(F)C2)cn1)Nc1nnc([C@H]2CC[C@H](c3nnc(NC(=O)Cc4ccc(N5CC(F)C5)cn4)s3)C2)s1

**Result**
["< 100 nM", "< 100 nM"]

----------
Provide the recorded pIC50 for the entries that follow.
assayed-system: glutaminase (GAC) (Homo sapiens, UniProt O94925)
Sequence (O94925 55-598 isoform O94925-3 limits assumed): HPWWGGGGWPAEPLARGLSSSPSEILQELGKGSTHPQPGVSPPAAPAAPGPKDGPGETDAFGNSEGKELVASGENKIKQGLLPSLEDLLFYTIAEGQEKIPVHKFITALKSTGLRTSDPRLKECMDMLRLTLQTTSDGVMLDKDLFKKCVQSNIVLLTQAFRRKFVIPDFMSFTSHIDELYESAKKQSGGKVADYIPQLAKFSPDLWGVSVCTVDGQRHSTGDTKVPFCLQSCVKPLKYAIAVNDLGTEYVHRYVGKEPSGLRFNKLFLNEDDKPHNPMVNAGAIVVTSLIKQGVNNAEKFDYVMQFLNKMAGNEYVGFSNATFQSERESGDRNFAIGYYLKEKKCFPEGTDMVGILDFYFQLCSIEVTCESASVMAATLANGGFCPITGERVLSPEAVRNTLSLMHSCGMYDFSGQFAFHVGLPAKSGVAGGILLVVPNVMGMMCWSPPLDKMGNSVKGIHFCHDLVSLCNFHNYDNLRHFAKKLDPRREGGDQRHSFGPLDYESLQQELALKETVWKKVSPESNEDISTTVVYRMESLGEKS
assay-method-text: Glutaminase (GAC) coupled endpoint enzymatic assay (glutamate dehydrogenase/diaphorase/resazurin, Ex544/Em590)
Assay type: biochemical
conditions: inhibition of glutaminase, tested in an assay of Example A or Example B; class symbols A-E
pIC50: −log10 of the molar value.

Solved cases below.
CC(C)(CO)C(=O)Nc1nnc([C@H]2CCC[C@H](c3nnc(NC(=O)C(C)(C)CO)s3)C2)s1 [Compound 63]	6.00 to 6.30
O=C(Cc1nccs1)Nc1nnc([C@H]2CCC[C@H](c3nnc(NC(=O)Cc4nccs4)s3)C2)s1 [Compound 61]	6.30 to 7.00
O=C(Cc1ccccn1)Nc1nnc([C@H]2CCC[C@H](c3nnc(NC(=O)Cc4ccccn4)s3)C2)s1 (single isomer, unassigned) [Compound 14]	> 7.00
Nc1cccc(CC(=O)Nc2nnc([C@H]3CCC[C@H](c4nnc(NC(=O)Cc5cccc(N)c5)s4)C3)s2)c1 [Compound 53]	> 7.00
O=C(Cc1cccc(N2CC(F)(F)C2)n1)Nc1nnc([C@H]2CC[C@H](c3nnc(NC(=O)[C@@H](O)c4ccccc4)s3)C2)s1 [Compound 377]	> 7.00
COc1ccc(CC(=O)Nc2nnc([C@H]3CC[C@H](c4nnc(NC(=O)Cc5cccc(N6CC(F)(F)C6)n5)s4)C3)s2)cn1 [Compound 358]	> 7.00
COc1ccc(CC(=O)Nc2nnc([C@H]3CCC[C@H](c4nnc(NC(=O)Cc5cccc(N6CC(F)(F)C6)n5)s4)C3)s2)cn1 [Compound 359]	> 7.00
O=C(Cc1cccc(N2CC(F)(F)C2)n1)Nc1nnc([C@H]2CCC[C@H](c3nnc(NC(=O)CC4CC4)s3)C2)s1 [Compound 349]	> 7.00

Field: pIC50. Fill in for each record below.
1. O=C(CC1CCCO1)Nc1nnc([C@H]2CCC[C@H](c3nnc(NC(=O)CC4CCCO4)s3)C2)s1 (some centres unmarked) [Compound 77]
2. COc1ccc(CC(=O)Nc2nnc([C@H]3CC[C@H](c4nnc(NC(=O)Cc5ccc(OC)cn5)s4)C3)s2)nc1 [Compound 347]
3. O=C(Cc1cccc(OC(F)(F)F)c1)Nc1nnc([C@H]2CCC[C@H](c3nnc(NC(=O)Cc4ccccn4)s3)C2)s1 [Compound 364]

**Result**
1: 5.70 to 6.00; 2: > 7.00; 3: > 7.00

Field: pIC50. Fill in for each record below.
1. CCCC(=O)Nc1nnc([C@H]2CCC[C@H](c3nnc(NC(=O)CCC)s3)C2)s1 [Compound 37]
2. COc1cccc(CC(=O)Nc2nnc([C@H]3CCC[C@H](c4nnc(NC(=O)Cc5cccc(OC)c5)s4)C3)s2)c1 (single isomer, unassigned) [Compound 71]
3. O=C(Nc1nnc([C@H]2CCC[C@H](c3nnc(NC(=O)c4ccccc4)s3)C2)s1)c1ccccc1 [Compound 39]

**Result**
1: 6.30 to 7.00; 2: > 7.00; 3: 5.70 to 6.00
